- SYSTEM_UNDER_TEST: C5aR (Homo sapiens)
- Construct: U937 cells are a monocytic cell line which express C5aR
- Sequence (P21730 whole entry): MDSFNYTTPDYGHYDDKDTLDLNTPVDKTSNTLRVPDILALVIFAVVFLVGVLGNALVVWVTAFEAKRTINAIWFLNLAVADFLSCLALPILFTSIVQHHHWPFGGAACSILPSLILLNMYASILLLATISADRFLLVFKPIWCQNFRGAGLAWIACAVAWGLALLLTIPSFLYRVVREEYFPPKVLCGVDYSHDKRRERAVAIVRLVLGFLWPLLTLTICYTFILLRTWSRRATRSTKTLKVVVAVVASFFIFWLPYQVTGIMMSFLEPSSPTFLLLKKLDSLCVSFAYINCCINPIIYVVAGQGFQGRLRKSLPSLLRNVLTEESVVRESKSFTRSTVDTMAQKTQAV
- ASSAY_EXPLANATION: chemotaxis assay (C5aR mediated migration)
- MEASUREMENT_PARAMETERS: migration of U937 or neutrophil cells toward C5a (0.03 nM), 1.5 hours at 37° C., read-out: Mig IC50
METRIC: IC50

INSERT INTO measurements (compound, metric, result) VALUES
  ('Cc1cnc(N2CCc3nn(-c4c(C)cccc4C)c(-c4ccc(Cl)c5[nH]ccc45)c3C2)nc1 [Example 1.154]', 'IC50', '5 to 50 nM'),
  ('CCc1cccc(CC)c1-n1nc2c(c1-c1ccc3[nH]ccc3c1)CN(C1CCOCC1)CC2 [Example 1.208]', 'IC50', '50 to 500 nM'),
  ('CCc1cccc(CC)c1-n1nc2c(c1-c1c(F)cc(C)c3[nH]ccc13)CN(c1ncc(C(F)(F)F)cn1)CC2 [Example 1.141]', 'IC50', '< 5 nM'),
  ('CCc1cccc(CC)c1-n1nc2c(c1-c1ccc(Cl)c3[nH]ncc13)CN(c1ncc(C3CC3)cn1)CC2 [Example 1.065]', 'IC50', '< 5 nM'),
  ('CCc1cccc(CC)c1-n1nc2c(c1-c1ccc(Cl)c3[nH]ccc13)CN(c1nccc(C)n1)CC2 [Example 1.110]', 'IC50', '5 to 50 nM'),
  ('COc1c(F)cc(-c2c3c(nn2-c2c(C)cccc2C)CCN(c2ncc(C(F)(F)F)cn2)C3)c2cc[nH]c12 [Example 1.004]', 'IC50', '5 to 50 nM'),
  ('CCc1cccc(CC)c1-n1nc2c(c1-c1ccc(Cl)c3[nH]ccc13)CN(C(=O)Nc1ccccc1)CC2 [Example 1.149]', 'IC50', '5 to 50 nM'),
  ('Cc1cccc(OCC(C)C)c1-n1nc2c(c1-c1ccc3[nH]ccc3c1)CN(c1ncc(C(F)(F)F)cc1Cl)CC2 [Example 1.216]', 'IC50', '5 to 50 nM'),
  ('CCc1cccc(CC)c1-n1nc2c(c1-c1ccc(Cl)c3[nH]ccc13)CN(c1ncc(OC(C)C)cn1)CC2 [Example 1.063]', 'IC50', '< 5 nM'),
  ('Cc1cccc(OCC(C)C)c1-n1nc2c(c1-c1ccc3[nH]ccc3c1)CN(C(=O)OCc1ccccc1)CC2 [Example 1.238]', 'IC50', '5 to 50 nM'),
  ('CCc1cccc(CC)c1-n1nc2c(c1-c1ccc(F)c3[nH]ccc13)CN(c1ncc(C3CC3)cc1F)CC2 [Example 1.175]', 'IC50', '< 5 nM'),
  ('CCc1cccc(CC)c1-n1nc2c(c1-c1cc(F)c(F)c3[nH]ccc13)CN(c1ncc(C(C)C)cn1)CC2 [Example 1.117]', 'IC50', '5 to 50 nM'),
  ('COc1c(F)cc(-c2c3c(nn2-c2c(C)cccc2F)CCN(c2ncc(C(F)(F)F)cn2)C3)c2cc[nH]c12 [Example 1.002]', 'IC50', '5 to 50 nM'),
  ('CCc1cccc(CC)c1-n1nc2c(c1-c1cc(F)c(OC)c3[nH]cc(F)c13)CN(c1ncc(C(F)(F)F)cn1)CC2 [Example 1.023]', 'IC50', '< 5 nM'),
  ('CCc1cccc(CC)c1-n1nc2c(c1-c1ccc(C(=O)N(C)C)c3[nH]ccc13)CN(c1ncc(C(F)(F)F)cn1)CC2 [Example 1.047]', 'IC50', '50 to 500 nM'),
  ('CCc1cccc(CC)c1-n1nc2c(c1-c1ccc(Cl)c3[nH]cnc13)CN(c1ncc(C(F)(F)F)cn1)CC2 [Example 1.069]', 'IC50', '< 5 nM');
